Origin of measurements: patent EP2469278A1

Recorded ΔF∞/F0 (maximal relative variation of fluorescence on HEL binding) for the following binders
target.or.test.system: T1, hen egg-white lysozyme (hen, UniProt P00698 19-147)
T1 construct: also called HEL
T1 sequence (P00698 19-147): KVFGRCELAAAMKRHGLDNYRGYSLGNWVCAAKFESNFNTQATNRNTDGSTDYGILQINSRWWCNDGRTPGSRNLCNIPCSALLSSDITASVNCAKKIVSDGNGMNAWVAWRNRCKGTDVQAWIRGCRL
protocol.details: fluorescence titration in solution, 0.3 µM conjugate, buffer C, 25 °C
property.label: ΔF∞/F0 (maximal relative variation of fluorescence on HEL binding)

[[record]]
binder = "H4S conjugate, IANBD fluorophore coupled at position Asp44 (designed binder, Cys at position 44 (H4S numbering) coupled to IANBD ester (ANBD)) MRGSHHHHHHGSVKVKFFWNGEEKEVDTSKIVWVKRAGKSVLFIYDDNGKNGYGCVTEKDAPKELLDMLARAEREKKLN"
reported_result = 1.5

[[record]]
binder = "H4S conjugate, IANBD fluorophore coupled at position Asn9 (designed binder, Cys at position 9 (H4S numbering) coupled to IANBD ester (ANBD)) MRGSHHHHHHGSVKVKFFWCGEEKEVDTSKIVWVKRAGKSVLFIYDDNGKNGYGDVTEKDAPKELLDMLARAEREKKLN"
reported_result = 0.52

[[record]]
binder = "H4S conjugate, IANBD fluorophore coupled at position Tyr42 (designed binder, Cys at position 42 (H4S numbering) coupled to IANBD ester (ANBD)) MRGSHHHHHHGSVKVKFFWNGEEKEVDTSKIVWVKRAGKSVLFIYDDNGKNGCGDVTEKDAPKELLDMLARAEREKKLN"
reported_result = 6.6

